The reported numbers originate from ChEMBL document CHEMBL3044730.

Tested on: Candida albicans
experiment_notes: Antimicrobial activity against Candida albicans after 2 days by serial dilution method
Type: functional
Design: unit not given here
endpoint: -logMIC
Numbers only.

Solved cases (4 shown):
INSERT INTO measurements (compound, value_reported) VALUES
  ('O=C(N/N=C/c1cccc([N+](=O)[O-])c1)c1cccnc1', 1.33),
  ('NNC(=O)c1cccnc1 [NICOTINIC ACID HYDRAZIDE]', 1.04),
  ('COc1ccc(OC)c(/C=N/NC(=O)c2cccnc2)c1', 1.36),
  ('O=C(N/N=C/c1ccccc1)c1cccnc1 [NICOTINIC ACID BENZYLIDENE-HYDRAZIDE]', 1.25);

List -logMIC for every entry below, keeping the order given.
1. CCOc1cc(/C=N/NC(=O)c2cccnc2)ccc1O
2. O=C(N/N=C/c1ccc(O)cc1)c1cccnc1

Solution:
1: 1.36; 2: 1.28
